experimental_details: Antiproliferative activity against mouse KC-0116 cells assessed as inhibition of cell growth incubated for 72 hrs by MTT assay
Type: functional, cell-based
assay_setup: KC-0116, 72 h
endpoint_name: pIC50
Entry type: numeric. Quantity: pIC50, the -log10 of concentration in molar units.

Example cases with answers are listed next.
COc1cc(N(C)CCN(C)C)c(NC(=O)CNC(C)=O)cc1Nc1nccc(-c2cn(C)c3ccccc23)n1; 5.70
COc1cc(N(C)CCN(C)C)ccc1Nc1nccc(-c2cn(C)c3ccccc23)n1; 5.75
COc1cc(N2CCC(N3CCN(C)CC3)CC2)ccc1Nc1nccc(-c2cn(C)c3ccccc23)n1; 5.93
Cn1cc(-c2ccnc(Nc3cccc(NS(=O)(=O)C4CC4)c3)n2)c2ccccc21; 6.24
COc1ccc(NC(=O)CCN)cc1Nc1nccc(-c2cn(C)c3ccccc23)n1; 5.84
COc1cc2c(cc1Nc1nccc(-c3cn(C)c4ccccc34)n1)NC(=O)CCCCCN2CCN(C)C; 5.63

In: Which measured pIC50 value corresponds to Cn1cc(-c2ccnc(Nc3cccc(NC(=O)CCN)c3)n2)c2ccccc21 ?
Out: 5.30

In: # get_value(readout='pIC50', item= COc1cc(N(C)CCN(C)C)c(NC(=O)CNC(=O)OC(C)(C)C)cc1Nc1nccc(-c2cn(C)c3ccccc23)n1 )
Out: 5.89
